# credit: the supplement of paper PMC13380429

System: Vero E6 infected with SARS-CoV-2
Assay: inhibition of SARS-CoV-2 cytopathic effect; higher = more antiviral protection, active = above 15
Conditions: 1 nM; 48 h
QUANTITY NAME: inhibition of SARS-CoV-2 cytopathic effect (%)
# value in %; strip the unit string

Which inhibition of SARS-CoV-2 cytopathic effect is reported with Vero E6 infected with SARS-CoV-2 for this entry: COc1cc(OC)c(OC)cc1C=O ?
-1.46

Which inhibition of SARS-CoV-2 cytopathic effect is reported with Vero E6 infected with SARS-CoV-2 for this entry: O=C1C=C2C=C[C@@H]3C[C@@]2(O1)[C@H]1CCCCN31 ?
0.7

Which inhibition of SARS-CoV-2 cytopathic effect is reported with Vero E6 infected with SARS-CoV-2 for this entry: CCCCCCCCCCCCCCCC(=O)OC(CC(=O)[O-])C[N+](C)(C)C (stereo not given) ?
0.08

Which inhibition of SARS-CoV-2 cytopathic effect is reported with Vero E6 infected with SARS-CoV-2 for this entry: Cc1nc(Nc2ncc(C(=O)Nc3c(C)cccc3Cl)s2)cc(N2CCN(CCO)CC2)n1 ?
1.14

Which inhibition of SARS-CoV-2 cytopathic effect is reported with Vero E6 infected with SARS-CoV-2 for this entry: COCCNC(=O)COc1ccc(OCCNC[C@H](O)COc2ccccc2)cc1 ?
0.49

Which inhibition of SARS-CoV-2 cytopathic effect is reported with Vero E6 infected with SARS-CoV-2 for this entry: COc1cc2c(N3CCN(C(=O)Nc4ccc(OC(C)C)cc4)CC3)ncnc2cc1OCCCN1CCCCC1 ?
-3.74

Which inhibition of SARS-CoV-2 cytopathic effect is reported with Vero E6 infected with SARS-CoV-2 for this entry: COc1ccc2c(c1)c(CC(=O)O)c(C)n2C(=O)c1ccc(Cl)cc1 ?
-1.21

Which inhibition of SARS-CoV-2 cytopathic effect is reported with Vero E6 infected with SARS-CoV-2 for this entry: CCCC(C(=O)OCCN(CC)CC)(c1ccccc1)c1ccccc1 ?
-8.13

Which inhibition of SARS-CoV-2 cytopathic effect is reported with Vero E6 infected with SARS-CoV-2 for this entry: Cc1cc(C(=O)Nc2cccc(C(=O)Nc3cccc(C(F)(F)F)c3)c2)on1 ?
0.37

Which inhibition of SARS-CoV-2 cytopathic effect is reported with Vero E6 infected with SARS-CoV-2 for this entry: COc1cc(C)nc(-n2nc(C)cc2OC)n1 [epirizole] ?
1.56
